All values here come from patent US20250236609A1.

Target: PI3KC2α (Homo sapiens (Human))
Sequence (O00443 whole entry, species assumed): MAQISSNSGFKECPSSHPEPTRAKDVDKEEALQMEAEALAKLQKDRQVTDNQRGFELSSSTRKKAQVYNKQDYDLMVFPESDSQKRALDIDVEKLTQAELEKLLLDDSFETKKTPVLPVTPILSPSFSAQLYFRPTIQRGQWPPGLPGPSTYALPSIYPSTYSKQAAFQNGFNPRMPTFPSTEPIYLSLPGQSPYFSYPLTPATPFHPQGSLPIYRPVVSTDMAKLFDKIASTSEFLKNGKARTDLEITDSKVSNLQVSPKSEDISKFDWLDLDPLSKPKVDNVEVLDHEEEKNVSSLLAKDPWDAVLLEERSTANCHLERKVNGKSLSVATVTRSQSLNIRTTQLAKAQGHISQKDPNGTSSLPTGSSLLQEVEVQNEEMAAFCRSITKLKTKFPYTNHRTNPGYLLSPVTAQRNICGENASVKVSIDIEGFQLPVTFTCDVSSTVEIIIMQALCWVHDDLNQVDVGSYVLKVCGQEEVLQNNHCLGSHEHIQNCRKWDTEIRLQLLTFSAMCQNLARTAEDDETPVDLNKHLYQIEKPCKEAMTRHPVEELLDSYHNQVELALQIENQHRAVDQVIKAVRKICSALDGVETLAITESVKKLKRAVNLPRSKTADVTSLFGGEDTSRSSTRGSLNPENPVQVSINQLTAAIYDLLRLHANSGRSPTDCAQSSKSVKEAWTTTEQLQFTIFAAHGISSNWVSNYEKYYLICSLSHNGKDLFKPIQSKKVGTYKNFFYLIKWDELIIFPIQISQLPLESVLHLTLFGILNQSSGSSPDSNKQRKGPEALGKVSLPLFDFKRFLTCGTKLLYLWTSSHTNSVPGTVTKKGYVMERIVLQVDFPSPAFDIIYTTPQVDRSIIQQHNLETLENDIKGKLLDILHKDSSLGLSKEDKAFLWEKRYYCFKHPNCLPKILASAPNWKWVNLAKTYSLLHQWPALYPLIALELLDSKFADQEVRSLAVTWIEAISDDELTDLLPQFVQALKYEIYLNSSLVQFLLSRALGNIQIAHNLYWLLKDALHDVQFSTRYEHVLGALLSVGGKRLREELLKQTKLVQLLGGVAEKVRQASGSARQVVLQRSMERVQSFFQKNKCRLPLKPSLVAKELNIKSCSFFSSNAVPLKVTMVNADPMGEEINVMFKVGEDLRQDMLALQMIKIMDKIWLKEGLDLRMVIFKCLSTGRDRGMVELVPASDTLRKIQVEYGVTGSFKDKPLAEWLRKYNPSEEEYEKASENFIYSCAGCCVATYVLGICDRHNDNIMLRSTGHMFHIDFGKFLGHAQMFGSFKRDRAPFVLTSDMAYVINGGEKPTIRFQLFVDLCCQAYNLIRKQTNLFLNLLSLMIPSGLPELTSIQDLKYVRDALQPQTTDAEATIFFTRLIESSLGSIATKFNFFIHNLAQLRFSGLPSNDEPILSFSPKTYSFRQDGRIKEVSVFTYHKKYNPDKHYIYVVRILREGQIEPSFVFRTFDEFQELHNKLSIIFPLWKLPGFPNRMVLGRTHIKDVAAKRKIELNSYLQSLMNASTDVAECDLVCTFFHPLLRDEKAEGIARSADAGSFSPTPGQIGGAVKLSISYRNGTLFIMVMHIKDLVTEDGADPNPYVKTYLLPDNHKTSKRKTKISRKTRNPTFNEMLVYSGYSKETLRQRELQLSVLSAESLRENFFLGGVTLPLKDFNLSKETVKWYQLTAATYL
Assay: Lipid kinase selectivity panel (Reaction Biology)
Type: biochemical
Details: 1 μM compound, single dose duplicates, 10 μM ATP; read-out: Percent inhibition relative to DMSO control, PI3KC2α
PROPERTY NAME: inhibition at 1 µM (%)

Cc1cnc(NC(=O)CCN2CCCC2)cc1-c1cc(N2CCCC[C@@H]2C(F)(F)F)[nH]c(=O)c1 : 4
COC(=O)Nc1cc(-c2cc(N3CCCC[C@@H]3C)[nH]c(=O)c2)c(C)cn1 : 5
Cc1cnc(NC(=O)OC2CC3(CNC3)C2)cc1-c1cc(N2CCCC[C@@H]2C(F)(F)F)[nH]c(=O)c1 : 3
COC(=O)Nc1ncc(C)c(-c2cc(-c3cccnc3C(F)(F)F)[nH]c(=O)c2)n1 : -3
O=C(Nc1cc(-c2cc(N3CCCC[C@@H]3C(F)(F)F)[nH]c(=O)c2)c(Cl)cn1)C1CC1 : -11
Cc1cnc(NC(=O)CC2CNC2)cc1-c1cc(N2CCCC[C@@H]2C(F)(F)F)[nH]c(=O)c1 : 0

(I) COC(=O)Nc1cc(-c2cc(N3CCCC[C@@H]3C(F)(F)F)[nH]c(=O)c2)c(C)cn1
(II) Cc1cnc(NC(=O)CC2CNCC2(F)F)cc1-c1cc(N2CCCC[C@@H]2C(F)(F)F)[nH]c(=O)c1 (stereo partly drawn)
Decide: I or II , by lowest recorded inhibition at 1 µM. Answer by stating the label of the chosen item.
I
(I: -1%, II: 2%)

(I) Cc1cnc(NC(=O)C2CC2)cc1-c1cc(N2CCCC[C@@H]2C(F)(F)F)[nH]c(=O)c1
(II) COC(=O)Nc1cc(-c2cc(-c3cccnc3C(F)(F)F)[nH]c(=O)c2)c(F)cn1
Of I and II , which one carries the higher reported inhibition at 1 µM? Please respond with the label that marks your chosen entry.
II

(P) COC(=O)Nc1cc(-c2cc(N3CCCC[C@@H]3C(F)(F)F)[nH]c(=O)c2)c(CF)cn1
(Q) COC(=O)Nc1cc(-c2cc(N3CCCC[C@@H]3C(F)(F)F)[nH]c(=O)c2)c(N)cn1
I'm curious, which of these has a smaller inhibition at 1 µM number: P or Q ? State the label of the item chosen.
P

====

Target: PI3Kα (p110α/p85α) (Homo sapiens (Human), UniProt P42336)
Sequence (P42336 whole entry, species assumed): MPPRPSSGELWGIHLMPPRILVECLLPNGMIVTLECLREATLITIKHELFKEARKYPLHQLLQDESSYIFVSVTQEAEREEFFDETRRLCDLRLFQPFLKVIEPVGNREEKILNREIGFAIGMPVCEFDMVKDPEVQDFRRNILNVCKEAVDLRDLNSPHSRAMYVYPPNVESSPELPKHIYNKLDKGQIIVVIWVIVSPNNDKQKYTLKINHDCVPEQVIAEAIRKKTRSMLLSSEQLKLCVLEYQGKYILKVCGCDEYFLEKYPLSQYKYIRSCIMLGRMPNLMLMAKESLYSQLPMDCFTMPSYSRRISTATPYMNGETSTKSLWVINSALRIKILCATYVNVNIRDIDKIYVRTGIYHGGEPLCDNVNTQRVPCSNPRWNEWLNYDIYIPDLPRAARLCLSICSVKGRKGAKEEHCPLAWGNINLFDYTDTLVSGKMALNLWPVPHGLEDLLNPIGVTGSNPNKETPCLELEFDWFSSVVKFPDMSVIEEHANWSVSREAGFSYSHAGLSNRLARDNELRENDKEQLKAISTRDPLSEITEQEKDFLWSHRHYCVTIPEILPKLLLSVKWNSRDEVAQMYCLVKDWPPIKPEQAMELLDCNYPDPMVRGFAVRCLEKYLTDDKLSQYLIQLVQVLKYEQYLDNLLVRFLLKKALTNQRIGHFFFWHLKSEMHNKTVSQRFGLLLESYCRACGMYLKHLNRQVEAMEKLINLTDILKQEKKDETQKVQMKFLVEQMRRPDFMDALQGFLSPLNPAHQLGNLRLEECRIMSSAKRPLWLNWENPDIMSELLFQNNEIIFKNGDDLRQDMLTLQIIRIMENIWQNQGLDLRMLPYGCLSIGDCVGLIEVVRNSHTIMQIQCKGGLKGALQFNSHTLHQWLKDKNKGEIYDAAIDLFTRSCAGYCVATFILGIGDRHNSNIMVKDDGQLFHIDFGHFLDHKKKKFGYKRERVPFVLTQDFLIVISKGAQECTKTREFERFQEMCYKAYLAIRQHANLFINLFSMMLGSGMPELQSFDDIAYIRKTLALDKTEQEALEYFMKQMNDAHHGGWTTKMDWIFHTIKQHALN
Sequence (P27986 whole entry partner, species assumed): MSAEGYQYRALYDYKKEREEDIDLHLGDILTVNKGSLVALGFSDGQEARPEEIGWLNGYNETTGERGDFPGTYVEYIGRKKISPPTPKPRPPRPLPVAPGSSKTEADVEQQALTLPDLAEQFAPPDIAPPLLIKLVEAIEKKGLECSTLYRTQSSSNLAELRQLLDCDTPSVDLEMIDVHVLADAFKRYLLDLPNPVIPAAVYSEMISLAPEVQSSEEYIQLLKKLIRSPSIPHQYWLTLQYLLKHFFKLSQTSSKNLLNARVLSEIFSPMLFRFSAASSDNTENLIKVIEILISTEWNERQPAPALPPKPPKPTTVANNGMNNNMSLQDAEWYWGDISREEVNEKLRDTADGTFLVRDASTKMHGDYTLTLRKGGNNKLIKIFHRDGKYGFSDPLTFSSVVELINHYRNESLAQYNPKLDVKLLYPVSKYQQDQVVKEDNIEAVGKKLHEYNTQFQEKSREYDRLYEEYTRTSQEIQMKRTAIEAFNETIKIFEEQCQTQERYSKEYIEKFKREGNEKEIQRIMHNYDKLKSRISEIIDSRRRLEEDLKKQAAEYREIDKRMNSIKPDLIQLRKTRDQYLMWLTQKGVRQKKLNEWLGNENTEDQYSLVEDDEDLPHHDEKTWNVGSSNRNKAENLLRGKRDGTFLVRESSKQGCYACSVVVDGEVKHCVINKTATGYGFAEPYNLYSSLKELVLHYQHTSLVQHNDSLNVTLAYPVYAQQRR
Experiment: Lipid kinase selectivity panel (Reaction Biology)
Assay type: biochemical
Conditions: 1 μM compound, single dose duplicates, 10 μM ATP; read-out: Percent inhibition relative to DMSO control, PI3Kα (p110α/p85α)
PROPERTY NAME: inhibition at 1 µM (%)

Cc1cnc(NC(=O)CC2CNC2)cc1-c1cc(N2CCCC[C@@H]2C(F)(F)F)[nH]c(=O)c1 : 4
CNCC(=O)Nc1cc(-c2cc(N3CCCC[C@@H]3C(F)(F)F)[nH]c(=O)c2)c(C)cn1 : -1
COC(=O)Nc1cc(-c2cc(N3CCCC[C@@H]3C)[nH]c(=O)c2)c(C)cn1 : -2
COC(=O)Nc1cc(-c2cc(-c3cccnc3C(F)(F)F)[nH]c(=O)c2)c(N)cn1 : -19
COC(=O)Nc1cc(-c2cc(N3CCCC[C@@H]3C(F)(F)F)[nH]c(=O)c2)c(C)cn1 : 22

(1) CNC(=O)Nc1cc(-c2cc(N3CCCC[C@@H]3C(F)(F)F)[nH]c(=O)c2)c(C)cn1
(2) Cc1cnc(NC(=O)CCN2CCCC2)cc1-c1cc(N2CCCC[C@@H]2C(F)(F)F)[nH]c(=O)c1
(3) O=C(Nc1cc(-c2cc(N3CCCC[C@@H]3C(F)(F)F)[nH]c(=O)c2)c(Cl)cn1)C1CC1
Please put the entries in order of rising inhibition at 1 µM. # output: labels, in the requested order
3, 1, 2

(I) COC(=O)Nc1cc(-c2cc(N3CCCC[C@@H]3C(F)(F)F)[nH]c(=O)c2)c(N)cn1
(II) COC(=O)Nc1cc(-c2cc(-c3cccnc3C(F)(F)F)[nH]c(=O)c2)c(F)cn1
Kindly compare I with II and tell me which has the lower inhibition at 1 µM figure. I would appreciate it if you answered with the label of your choice.
I
(I: -3%, II: 17%)

(A) Cc1cnc(NC(=O)CC2CNCC2(F)F)cc1-c1cc(N2CCCC[C@@H]2C(F)(F)F)[nH]c(=O)c1 (stereo partly shown)
(B) Cc1nccc(Nc2cc(-c3cc(N4CCCC[C@@H]4C(F)(F)F)[nH]c(=O)c3)c(C)cn2)n1
Which value of inhibition at 1 µM is numerically greater: that of A or that of B ? Give the label under which the chosen entry appears.
B
